System: OVCAR-8 ovarian
ASSAY METHOD TEXT: NCI tumour cell line growth inhibition, 48 h
This section presents molecules with their documented GI50 values.

Below: 6 molecules and their reported GI50.
>  <MOLECULE>
COCCNC(=O)c1ccc(-c2nc3ccc4[nH]ncc4c3c3c2CCCC3)cc1

>  <REPORTED ENDPOINT>
GI50

>  <ENDPOINT RESULT>
2640 nM

$$$$
>  <MOLECULE>
N#CC1=C(N)Oc2c(sc3c(F)cccc23)C1c1ccc(F)cc1 (stereo not drawn)

>  <REPORTED ENDPOINT>
GI50

>  <ENDPOINT RESULT>
1610 nM

$$$$
>  <MOLECULE>
Cc1nn(-c2nc3ccccc3[nH]2)c2c1C(c1ccc3c(c1)OCO3)CC(=O)N2 (stereo not drawn)

>  <REPORTED ENDPOINT>
GI50

>  <ENDPOINT RESULT>
3510 nM

$$$$
>  <MOLECULE>
O=C(CCCCCCC(=O)Nc1ccc2c(c1)/C(=C/c1ccc[nH]1)C(=O)N2)NO

>  <REPORTED ENDPOINT>
GI50

>  <ENDPOINT RESULT>
472 nM

$$$$
>  <MOLECULE>
OCCNCCNc1c2ccccc2nc2oc3ccccc3c12

>  <REPORTED ENDPOINT>
GI50

>  <ENDPOINT RESULT>
9460 nM

$$$$
>  <MOLECULE>
O=C(/C=C/c1ccc(C(F)(F)F)cc1)c1ccc(Nc2nc(NCCO)nc(N3CCOCC3)n2)cc1

>  <REPORTED ENDPOINT>
GI50

>  <ENDPOINT RESULT>
3250 nM

$$$$

Which value of GI50 has been reported for CC1=C(C(=O)Nc2ccc(F)c(Cl)c2)C(c2cccc(Oc3ccccc3)c2)NC(=O)N1 (stereo not drawn) in the records?
18000 nM

Which value of GI50 has been reported for CS(=O)(=O)Nc1cc(-c2ccc3ncnc(Nc4ccc5c(cnn5Cc5ccccc5F)c4)c3c2)cnc1Cl in the records?
2720 nM

Reference for the values: PubChem BioAssay (NCI)
